Biological target: EGFR (human)
Test: KINOMEscan competition binding
Settings: compound 10.0 µM
reported_metric: kinase still bound, per cent of control (%)
Numbers only; they are read as %.

O=C1NC(=O)/C(=C/c2ccc(-c3ccc(F)cc3O)o2)S1	29

Now for a further molecule.
Qu. Any idea what its kinase still bound, per cent of control is? The molecule is "CN1CCN(c2ccc(C(=O)Nc3ncc4c(n3)N(C)c3ccccc3C(=O)N4C)cc2)CC1"
Ans. 100

* * *

Target: RAF1 (human)
Experiment: KINOMEscan competition binding
Settings: compound 10.0 µM
reported_metric: kinase still bound, per cent of control (%)
Respond with the bare value in %.

Some molecules with recorded kinase still bound, per cent of control:
COc1cc(N2CCN(C)CC2)ccc1Nc1ncc2c(n1)N(C)c1ccccc1N(C)C2=O	94
COc1cc(N(C)CCO)ccc1Nc1ncc2c(n1)N(C1CCCC1)CCC(=O)N2C	0
COc1cc(N2CCN(C)CC2)ccc1Nc1ncc2c(n1)N(C)c1sccc1C(=O)N2C	94
O=C1NC(=S)S/C1=C\c1ccc(-c2cncc3ccccc23)o1	25

Qu. Which measured kinase still bound, per cent of control value corresponds to "CN1C(=O)c2ccccc2N(C)c2nc(NS(=O)(=O)c3ccc(N)cc3)ncc21" ?
Ans. 100

Qu. Try this molecule too: "O=C1NC(=O)/C(=C/c2c[nH]c(=O)c(-c3ccc(N4CCNCC4)nc3)c2)S1"
Ans. 94

Qu. Now try "COc1cc(N2CCC(O)CC2)ccc1Nc1ncc2c(n1)N1CCc3cccc(c31)C(=O)N2C" .
Ans. 98

* * *

Test system: EGFR (human), P00533 [A750P; 747-749 del]
Test: KINOMEscan competition binding
Conditions: compound 10.0 µM
Reported kinase still bound, per cent of control values follow for various compounds
Report as a plain number; the unit % is understood.

Some compounds with known kinase still bound, per cent of control results, for comparison:
N=C1NC(=O)/C(=C/c2ccc(-c3ccc(F)cc3O)o2)S1	29
COc1cc(C(=O)NC2CCN(C)CC2)ccc1Nc1ncc2c(n1)N(CCc1ccccc1)CCC(=O)N2C	19

For the next question, use this compound.
Qu. Query the reported kinase still bound, per cent of control for EGFR (human), P00533 [A750P; 747-749 del]; item: "CN1C(=O)c2ccccc2N(C)c2nc(Nc3ccc(N4CCC(O)CC4)cc3)ncc21"
Ans. 98

* * *

Biological target: SLK (human)
Test: KINOMEscan competition binding
Conditions: compound 10.0 µM
Recorded kinase still bound, per cent of control, one value per entry.
Number only, in %; omit the unit.

COc1cc(C(=O)NC2CCN(C)CC2)ccc1Nc1ncc2c(n1)N(C1CCCC1)[C@@H]1CCC[C@@H]1C(=O)N2C	5.8

Qu. Short answer please: kinase still bound, per cent of control, SLK (human), entry "CCN1CCN(Cc2cc(NC(=O)c3cccc4cc(-c5ccc(/C=C6\SC(=O)NC6=O)o5)ccc34)cc(C(F)(F)F)c2)CC1"
Ans. 30

Qu. Let us now turn to "CS(=O)(=O)Nc1ccc(-c2ncc(/C=C3\SC(=N)NC3=O)s2)cc1"
Ans. 1.4

Qu. Likewise for "COc1cc(N2CCN(C)CC2)ccc1Nc1ncc2c(n1)N(C)c1sccc1C(=O)N2C" ?
Ans. 87

* * *

Reported kinase still bound, per cent of control values for the following compounds.
System: FLT3 (human), P36888 [N841I]
Experiment: KINOMEscan competition binding
Settings: compound 10.0 µM
Respond numerically; units are % and should not be typed.

The cases that follow already have their kinase still bound, per cent of control on record.
COc1cc(N2CCN(C)CC2)ccc1Nc1ncc2c(n1)N(C)c1sccc1C(=O)N2C	78
N=C1NC(=O)/C(=C/c2ccc(-c3cnc4ccccc4c3)o2)S1	29

Qu. Look up kinase still bound, per cent of control for this compound: "COc1cc(N2CCN(C)CC2)ccc1Nc1ncc2c(n1)N(c1ccccc1)CCC(=O)N2"
Ans. 23

* * *

Biological target: AURKB (human) (UniProt Q96GD4)
Sequence (Q96GD4 whole entry, looked up): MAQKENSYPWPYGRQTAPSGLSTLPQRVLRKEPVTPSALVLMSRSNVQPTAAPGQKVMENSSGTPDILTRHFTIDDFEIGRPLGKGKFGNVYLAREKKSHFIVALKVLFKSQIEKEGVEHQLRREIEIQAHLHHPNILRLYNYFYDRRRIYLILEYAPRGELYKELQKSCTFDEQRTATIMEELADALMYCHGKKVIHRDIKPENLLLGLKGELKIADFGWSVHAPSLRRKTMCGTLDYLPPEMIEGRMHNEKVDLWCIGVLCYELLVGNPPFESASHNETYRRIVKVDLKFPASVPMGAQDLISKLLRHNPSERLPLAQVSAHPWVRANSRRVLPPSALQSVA
Assay: KINOMEscan competition binding
Conditions: compound 10.0 µM
Define the label as T when kinase still bound, per cent of control is strictly less than 70% and as F in all remaining cases.

Field: example entries. Status: answers known.
CN1CCN(c2ccc(C(=O)Nc3ncc4c(n3)N(C)c3ccccc3C(=O)N4C)cc2)CC1	F
CN1C(=O)c2ccccc2N(C)c2nc(Nc3ccc(N4CCC(O)CC4)cc3)ncc21	T
COc1cc(N2CCN(C)CC2)ccc1Nc1ncc2c(n1)N(C)c1ccccc1N(C)C2=O	F
Nc1cccc(-c2cc(/C=C3\SC(=O)NC3=O)c[nH]c2=O)c1	T

Qu. kinase still bound, per cent of control under 70%? Item: "COc1cc(N2CCC(O)CC2)ccc1Nc1ncc2c(n1)N1CCc3cccc(c31)C(=O)N2C"
Ans. F

Qu. Also need "O=C1NC(=S)S/C1=C\c1ccc(-c2cncc3ccccc23)o1" , thanks.
Ans. T

* * *

Target: UniProt:P0C264
Sequence (P0C264 whole entry, looked up): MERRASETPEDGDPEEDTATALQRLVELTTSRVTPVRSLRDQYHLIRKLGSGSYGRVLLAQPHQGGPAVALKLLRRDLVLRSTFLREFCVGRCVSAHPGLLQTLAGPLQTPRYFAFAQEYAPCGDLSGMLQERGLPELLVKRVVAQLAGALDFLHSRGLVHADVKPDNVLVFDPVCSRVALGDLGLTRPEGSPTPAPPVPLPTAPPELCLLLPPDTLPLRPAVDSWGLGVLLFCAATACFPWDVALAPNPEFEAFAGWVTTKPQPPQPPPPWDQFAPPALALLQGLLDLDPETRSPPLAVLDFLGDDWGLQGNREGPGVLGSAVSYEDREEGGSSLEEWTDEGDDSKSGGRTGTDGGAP
Test: KINOMEscan competition binding
Details: compound 10.0 µM
Entries and their kinase still bound, per cent of control values follow.
Kindly provide the numeric value in % only, without the unit symbol.

O=C1NC(=O)/C(=C/c2c[nH]c(=O)c(-c3ccc(N4CCNCC4)nc3)c2)S1	100
COc1cc(N2CCN(C)CC2)ccc1Nc1ncc2c(n1)N(C)c1ccccc1N(C)C2=O	52

Next, consider the following compound.
Qu. Returns the measured kinase still bound, per cent of control for the input compound. Input: "COc1cc(N2CCN(C)CC2)ccc1Nc1ncc2c(n1)N(C)c1sccc1C(=O)N2C"
Ans. 55

* * *

Target: MYO3B (human) (UniProt Q8WXR4)
Sequence (Q8WXR4 whole entry, looked up): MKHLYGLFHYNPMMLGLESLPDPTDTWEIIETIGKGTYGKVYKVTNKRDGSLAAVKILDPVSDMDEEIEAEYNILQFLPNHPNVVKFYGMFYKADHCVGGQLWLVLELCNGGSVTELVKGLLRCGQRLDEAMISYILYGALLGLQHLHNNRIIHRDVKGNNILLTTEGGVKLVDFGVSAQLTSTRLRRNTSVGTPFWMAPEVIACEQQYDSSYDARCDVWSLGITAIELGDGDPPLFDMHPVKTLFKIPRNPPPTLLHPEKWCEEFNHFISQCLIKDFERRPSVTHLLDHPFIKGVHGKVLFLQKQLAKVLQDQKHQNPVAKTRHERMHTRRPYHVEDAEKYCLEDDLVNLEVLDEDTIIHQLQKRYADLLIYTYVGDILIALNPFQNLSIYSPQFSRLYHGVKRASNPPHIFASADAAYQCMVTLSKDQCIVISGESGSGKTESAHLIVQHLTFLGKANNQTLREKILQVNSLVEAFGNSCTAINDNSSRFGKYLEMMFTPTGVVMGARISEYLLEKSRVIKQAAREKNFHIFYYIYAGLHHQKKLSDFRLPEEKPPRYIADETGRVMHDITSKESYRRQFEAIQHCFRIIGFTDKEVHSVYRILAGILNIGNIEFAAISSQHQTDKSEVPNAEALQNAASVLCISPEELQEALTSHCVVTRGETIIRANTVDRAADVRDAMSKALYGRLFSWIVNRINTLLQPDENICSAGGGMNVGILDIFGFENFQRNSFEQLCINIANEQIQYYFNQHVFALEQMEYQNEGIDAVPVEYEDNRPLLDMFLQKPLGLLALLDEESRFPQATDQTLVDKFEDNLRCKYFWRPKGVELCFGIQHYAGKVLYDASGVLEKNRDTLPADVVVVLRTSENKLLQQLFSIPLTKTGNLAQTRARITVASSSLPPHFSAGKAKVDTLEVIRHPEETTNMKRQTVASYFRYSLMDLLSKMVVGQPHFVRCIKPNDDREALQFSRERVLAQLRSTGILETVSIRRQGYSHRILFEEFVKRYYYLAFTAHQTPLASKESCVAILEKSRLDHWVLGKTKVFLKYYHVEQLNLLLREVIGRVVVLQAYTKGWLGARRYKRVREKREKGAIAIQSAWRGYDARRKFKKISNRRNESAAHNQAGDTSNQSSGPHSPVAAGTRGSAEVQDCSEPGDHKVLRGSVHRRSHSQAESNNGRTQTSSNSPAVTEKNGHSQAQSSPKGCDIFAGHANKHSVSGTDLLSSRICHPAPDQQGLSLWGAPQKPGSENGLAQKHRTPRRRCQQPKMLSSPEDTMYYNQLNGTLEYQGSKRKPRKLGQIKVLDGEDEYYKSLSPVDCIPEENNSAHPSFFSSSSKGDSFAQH
Experiment: KINOMEscan competition binding
Details: compound 10.0 µM
reported_metric: kinase still bound, per cent of control (%)
Provide only the numeric value, understood in %.

Known kinase still bound, per cent of control results, listed for orientation:
CN1CCN(c2ccc(C(=O)Nc3ncc4c(n3)N(C)c3ccccc3C(=O)N4C)cc2)CC1	93
COc1cc(N2CCN(C)CC2)ccc1Nc1ncc2c(n1)N(C)c1ccccc1N(C)C2=O	89
CN1C(=O)c2ccccc2N(C)c2nc(NS(=O)(=O)c3ccc(N)cc3)ncc21	74
COc1cc(N2CCC(O)CC2)ccc1Nc1ncc2c(n1)N1CCc3cccc(c31)C(=O)N2C	77

Continue with the next molecule.
Qu. Could you share which kinase still bound, per cent of control value was measured for "O=C1NC(=S)S/C1=C\c1ccc(-c2cncc3ccccc23)o1" ?
Ans. 26

* * *

In this section we review reported kinase still bound, per cent of control values for a set of molecules.
System: ABL1 (human), P00519 [F317I]
Sequence (P00519 whole entry F317I, looked up): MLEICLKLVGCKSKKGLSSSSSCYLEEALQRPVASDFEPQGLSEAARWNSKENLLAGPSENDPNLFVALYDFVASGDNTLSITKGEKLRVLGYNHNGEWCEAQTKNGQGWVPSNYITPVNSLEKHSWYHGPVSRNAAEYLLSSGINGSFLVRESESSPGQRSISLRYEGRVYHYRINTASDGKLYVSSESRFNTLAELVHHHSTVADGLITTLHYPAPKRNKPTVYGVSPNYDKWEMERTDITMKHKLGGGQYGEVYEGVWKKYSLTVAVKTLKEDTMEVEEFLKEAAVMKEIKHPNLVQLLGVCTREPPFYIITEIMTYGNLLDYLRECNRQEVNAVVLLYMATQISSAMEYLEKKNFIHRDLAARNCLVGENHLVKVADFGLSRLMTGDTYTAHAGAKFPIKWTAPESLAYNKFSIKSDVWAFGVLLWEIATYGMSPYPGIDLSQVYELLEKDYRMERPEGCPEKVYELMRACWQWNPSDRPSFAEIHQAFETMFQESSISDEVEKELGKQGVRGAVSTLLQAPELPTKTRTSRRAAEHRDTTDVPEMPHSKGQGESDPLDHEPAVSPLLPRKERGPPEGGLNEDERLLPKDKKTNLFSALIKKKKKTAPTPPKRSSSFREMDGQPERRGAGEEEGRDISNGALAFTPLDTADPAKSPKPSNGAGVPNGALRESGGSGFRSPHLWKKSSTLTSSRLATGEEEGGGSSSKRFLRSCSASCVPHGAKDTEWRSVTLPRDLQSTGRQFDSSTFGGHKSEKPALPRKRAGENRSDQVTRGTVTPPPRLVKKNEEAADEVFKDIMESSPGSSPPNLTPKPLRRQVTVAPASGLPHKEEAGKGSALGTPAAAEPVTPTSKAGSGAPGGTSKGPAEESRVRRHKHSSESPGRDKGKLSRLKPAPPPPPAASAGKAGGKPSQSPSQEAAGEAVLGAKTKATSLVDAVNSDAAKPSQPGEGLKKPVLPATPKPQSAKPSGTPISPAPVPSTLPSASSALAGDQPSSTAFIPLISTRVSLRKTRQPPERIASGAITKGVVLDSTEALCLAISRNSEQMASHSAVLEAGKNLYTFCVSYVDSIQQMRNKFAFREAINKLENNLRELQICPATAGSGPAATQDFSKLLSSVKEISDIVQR
Assay: KINOMEscan competition binding
Conditions: compound 10.0 µM

Solved cases (3 shown):
COc1cc(N2CCN(C)CC2)ccc1Nc1ncc2c(n1)Nc1ccccc1NC2=O	65%
COc1cc(N2CCN(C)CC2)ccc1Nc1ncc2c(n1)N(C)c1ccccc1N(C)C2=O	67%
COc1cc(N2CCN(C)CC2)ccc1Nc1ncc2c(n1)N1CCC[C@H]1CC(=O)N2	13%

Qu. Recorded kinase still bound, per cent of control for "COc1cc(N2CCN(C)CC2)ccc1Nc1ncc2c(n1)N(C(C)C)c1ccccc1C(=O)N2" , please?
Ans. 15%

Qu. # repeat for "CCOc1cc(N2CCC(O)CC2)ccc1Nc1ncc2c(n1)N(C)c1ccccc1C(=O)N2C"
Ans. 30%

* * *

Target: AKT3 (human) (UniProt Q9Y243)
Sequence (Q9Y243 whole entry, looked up): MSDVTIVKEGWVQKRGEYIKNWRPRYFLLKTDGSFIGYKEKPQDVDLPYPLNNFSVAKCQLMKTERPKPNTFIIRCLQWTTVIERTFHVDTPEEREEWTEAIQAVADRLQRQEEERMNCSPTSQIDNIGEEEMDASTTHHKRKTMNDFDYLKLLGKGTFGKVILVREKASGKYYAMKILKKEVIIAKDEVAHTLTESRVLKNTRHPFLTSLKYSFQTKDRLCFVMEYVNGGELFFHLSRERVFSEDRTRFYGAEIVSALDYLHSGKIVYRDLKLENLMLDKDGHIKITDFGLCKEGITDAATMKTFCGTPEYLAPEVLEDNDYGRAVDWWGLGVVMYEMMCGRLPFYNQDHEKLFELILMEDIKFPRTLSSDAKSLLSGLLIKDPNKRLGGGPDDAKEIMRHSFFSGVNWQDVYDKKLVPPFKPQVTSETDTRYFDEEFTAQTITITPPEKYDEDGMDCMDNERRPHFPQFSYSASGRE
Assay: KINOMEscan competition binding
Conditions: compound 10.0 µM
reported_metric: kinase still bound, per cent of control (%)
Write the number in % without appending the unit.

COc1cc(N2CCN(C)CC2)ccc1Nc1ncc2c(n1)N(C)c1ccccc1N(C)C2=O	100
COc1cc(N2CCN(CCO)CC2)ccc1Nc1ncc2c(n1)N(C1CCCC1)CCC(=O)N2C	0
COc1cc(N2CCN(C)CC2)ccc1Nc1ncc2c(n1)Nc1ccccc1NC2=O	100

Next:
Qu. What value of measured kinase still bound, per cent of control is listed for "COc1cc(N2CCC(O)CC2)ccc1Nc1ncc2c(n1)N1CCc3cccc(c31)C(=O)N2C" ?
Ans. 61

* * *

Biological target: BTK (human) (UniProt Q06187)
Sequence (Q06187 whole entry, looked up): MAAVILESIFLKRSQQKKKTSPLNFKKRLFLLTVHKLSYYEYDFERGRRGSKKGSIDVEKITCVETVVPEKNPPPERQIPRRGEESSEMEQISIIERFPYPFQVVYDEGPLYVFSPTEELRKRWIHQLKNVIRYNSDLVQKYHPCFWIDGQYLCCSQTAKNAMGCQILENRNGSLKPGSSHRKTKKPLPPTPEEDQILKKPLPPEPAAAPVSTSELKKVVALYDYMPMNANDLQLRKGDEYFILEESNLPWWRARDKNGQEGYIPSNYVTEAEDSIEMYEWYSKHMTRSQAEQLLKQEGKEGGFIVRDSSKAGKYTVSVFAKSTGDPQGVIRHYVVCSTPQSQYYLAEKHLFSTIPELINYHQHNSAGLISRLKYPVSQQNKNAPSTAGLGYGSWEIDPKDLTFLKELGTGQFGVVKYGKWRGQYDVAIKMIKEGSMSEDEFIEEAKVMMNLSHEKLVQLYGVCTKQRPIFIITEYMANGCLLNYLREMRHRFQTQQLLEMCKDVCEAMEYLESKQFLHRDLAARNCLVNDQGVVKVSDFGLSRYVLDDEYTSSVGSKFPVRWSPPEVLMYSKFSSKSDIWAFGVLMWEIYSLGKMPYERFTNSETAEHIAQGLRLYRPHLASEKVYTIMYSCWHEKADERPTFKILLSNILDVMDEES
Experiment: KINOMEscan competition binding
Details: compound 10.0 µM
Listing: kinase still bound, per cent of control of selected molecules
Please reply with the bare figure in % and do not write the unit itself.

Example results:
CS(=O)C1=NC(=O)/C(=C/c2ccc(-c3ccc(S(N)(=O)=O)cc3)o2)S1 (configuration not stated)	17
COc1cc(N2CCN(C)CC2)ccc1Nc1ncc2c(n1)N(C)c1ccccc1N(C)C2=O	78
O=C1NC(=O)/C(=C/c2c[nH]c(=O)c(-c3ccc(N4CCNCC4)nc3)c2)S1	51
CN1C(=O)c2ccccc2N(C)c2nc(Nc3ccc(N4CCC(O)CC4)cc3)ncc21	100

Qu. Returns the measured kinase still bound, per cent of control for the input molecule. Input: "CN1C(=O)c2ccccc2N(C)c2nc(NS(=O)(=O)c3ccc(N)cc3)ncc21"
Ans. 100

Qu. Moving on to "CN1CCN(c2ccc(C(=O)Nc3ncc4c(n3)N(C)c3ccccc3C(=O)N4C)cc2)CC1"
Ans. 100

Qu. Again, but for "NS(=O)(=O)c1ccc(-c2ccc(/C=C3\SC(=O)NC3=O)o2)cc1"
Ans. 30

Reference for the values: the kinase profiling compilation of Christmann-Franck et al. (2016)
